# study.target: hGHQ141N, P01241
# Sequence (P01241 27-217 Q167N): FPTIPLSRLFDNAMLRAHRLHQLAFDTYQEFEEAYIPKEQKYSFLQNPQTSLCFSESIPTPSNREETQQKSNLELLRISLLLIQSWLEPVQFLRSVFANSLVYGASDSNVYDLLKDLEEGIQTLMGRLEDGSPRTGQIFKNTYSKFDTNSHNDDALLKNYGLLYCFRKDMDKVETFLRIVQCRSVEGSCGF
reported.property: Activity (RFU/sec/µg), dansyl-cadaverine fluorescence kinetics

[
  {
    "protein": "AlaPro-mTGase from S. mobaraensis (protein) APDSDDRVTPPAEPLDRMPDPYRPSYGRAETVVNNYIRKWQQVYSHRDGRKQQMTEEQREWLSYGCVGVTWVNSGQYPTNRLAFASFDEDRFKNELKNGRPRSGETRAEFEGRVAKESFDEEKGFQRAREVASVMNRALENAHDESAYLDNLKKELANGNDALRNEDARSPFYSALRNTPSFKERNGGNHDPSRMKAVIYSKHFWSGQDRSSSADKRKYGDPDAFRPAPGTGLVDMSRDRNIPRSPTSPGEGFVNFDYGWFGAQTEADADKTVWTHGNHYHAPNGSLGAMHVYESKFRNWSEGYSDFDRGAYVITFIPKSWNTAPDKVKQGWP",
    "recorded.measurement": "1.56 RFU/sec/µg"
  },
  {
    "protein": "GlyPro-mTGase from S. mobaraensis (protein) GPDSDDRVTPPAEPLDRMPDPYRPSYGRAETVVNNYIRKWQQVYSHRDGRKQQMTEEQREWLSYGCVGVTWVNSGQYPTNRLAFASFDEDRFKNELKNGRPRSGETRAEFEGRVAKESFDEEKGFQRAREVASVMNRALENAHDESAYLDNLKKELANGNDALRNEDARSPFYSALRNTPSFKERNGGNHDPSRMKAVIYSKHFWSGQDRSSSADKRKYGDPDAFRPAPGTGLVDMSRDRNIPRSPTSPGEGFVNFDYGWFGAQTEADADKTVWTHGNHYHAPNGSLGAMHVYESKFRNWSEGYSDFDRGAYVITFIPKSWNTAPDKVKQGWP",
    "recorded.measurement": "1.13 RFU/sec/µg"
  }
]
